- Test system: NCCIT (Other Solid Carcinomas)
- PROTOCOL_NOTES: combination Emax (second highest fraction inhibited in the dose matrix, 72 h); higher = more inhibition; extreme values may be limits of the assay
PARAMETER_MEASURED: combination Emax
Answer with a number only.

Some compounds with recorded combination Emax:
>  <COMPOUND>
CN(CCO)CC[C@H](CSc1ccccc1)Nc1ccc(S(=O)(=O)NC(=O)c2ccc(N3CCC([C@@H](O)c4ccccc4-c4ccc(Cl)cc4)CC3)cc2)cc1S(=O)(=O)C(F)(F)F [AZD4320] + CN(C)CCCOc1ccc(-c2ccc3ncc4c(c3c2)n(C2CCOCC2)c(=O)n4C)cn1 [AZD0156] (first compound max 1 µM, 7x7, partner max 1 µM)

>  <combination Emax>
0.174

$$$$
>  <COMPOUND>
COc1cccc(OCCCN)c1-c1cc(Nc2cnc(C#N)cn2)n[nH]1 [Prexasertib] + Cc1cc2ncnn2cc1Nc1ncc2c(n1)n(C1CCOCC1)c(=O)n2C [AZD7648] (first compound max 1 µM, 7x7, partner max 10 µM)

>  <combination Emax>
0.801

$$$$
>  <COMPOUND>
CN(CCO)CC[C@H](CSc1ccccc1)Nc1ccc(S(=O)(=O)NC(=O)c2ccc(N3CCC([C@@H](O)c4ccccc4-c4ccc(Cl)cc4)CC3)cc2)cc1S(=O)(=O)C(F)(F)F [AZD4320] + C=CCn1c(=O)c2cnc(Nc3ccc(N4CCN(C)CC4)cc3)nc2n1-c1cccc(C(C)(C)O)n1 [AZD1775] (first compound max 1 µM, partner max 1 µM)

>  <combination Emax>
0.878

$$$$

Ask: Value lookup for combination Emax; key = CN(C)CCCOc1ccc(-c2ccc3ncc4c(c3c2)n(C2CCOCC2)c(=O)n4C)cn1 [AZD0156] + C=CCn1c(=O)c2cnc(Nc3ccc(N4CCN(C)CC4)cc3)nc2n1-c1cccc(C(C)(C)O)n1 [AZD1775] (first compound max 1 µM, partner max 1 µM)
Result: 0.858

Ask: Please give the measured combination Emax for this compound: C=CCn1c(=O)c2cnc(Nc3ccc(N4CCN(C)CC4)cc3)nc2n1-c1cccc(C(C)(C)O)n1 [AZD1775] + C[C@@H]1COCCN1C2=NC(=NC(=C2)C3(CC3)[S@](=N)(=O)C)C4=C5C=CNC5=NC=C4 [AZD6738] (first compound max 1 µM, partner max 10 µM)
Result: 0.905

Ask: Sample NC1(C(=O)N[C@@H](CCO)c2ccc(Cl)cc2)CCN(c2ncnc3[nH]ccc23)CC1 [Capivasertib] + Cn1cnc2c(F)c(Nc3ccc(Br)cc3Cl)c(C(=O)NOCCO)cc21 [Selumetinib] (first compound max 10 µM, 7x7, partner max 10 µM) — what was its combination Emax?
Result: 0.55

Ask: Fill in the blank: the reported combination Emax of C[C@@H]1COCCN1c1cc(C2([S@](C)(=N)=O)CC2)nc(-c2ccnc3[nH]ccc23)n1 [AZD6738] + Nc1ccn([C@@H]2O[C@H](CO)[C@@H](O)C2(F)F)c(=O)n1 [Gemcitabine] (first compound max 10 µM, 7x7, partner max 0.3 µM) is ____.
Result: 0.839

###

Bliss excess values, listed per item
- Test system: COR-L279 (Small Cell Lung Carcinoma)
- PROTOCOL_NOTES: Bliss excess, mean over the matrix (fraction); higher = more synergy
Form field (numeric): enter value without unit.

# example entries with known answers
>  <COMPOUND>
C[C@@H]1COCCN1c1cc(C2([S@](C)(=N)=O)CC2)nc(-c2ccnc3[nH]ccc23)n1 [AZD6738] + C1CC(C1)(C(=O)[O-])C(=O)[O-].N.N.[Pt+2] [Carboplatin] (first compound max 10 µM, 7x7, partner max 10 µM)

>  <Bliss excess>
-0.0178

$$$$
>  <COMPOUND>
COc1cccc(OCCCN)c1-c1cc(Nc2cnc(C#N)cn2)n[nH]1 [Prexasertib] + C=CCn1c(=O)c2cnc(Nc3ccc(N4CCN(C)CC4)cc3)nc2n1-c1cccc(C(C)(C)O)n1 [AZD1775] (first compound max 1 µM, partner max 1 µM)

>  <Bliss excess>
0.0823

$$$$
>  <COMPOUND>
NC1(C(=O)N[C@@H](CCO)c2ccc(Cl)cc2)CCN(c2ncnc3[nH]ccc23)CC1 [Capivasertib] + Cn1cnc2c(F)c(Nc3ccc(Br)cc3Cl)c(C(=O)NOCCO)cc21 [Selumetinib] (first compound max 10 µM, 7x7, partner max 10 µM)

>  <Bliss excess>
0.0214

$$$$

Ask: Entry under review: Cc1c2c(nn1C)CSCc1cc(n(C)n1)CSc1cc(c3ccccc3c1)OCCCc1c(C(=O)O)n(C)c3c-2c(Cl)ccc13 [AZD5991] + C=CCn1c(=O)c2cnc(Nc3ccc(N4CCN(C)CC4)cc3)nc2n1-c1cccc(C(C)(C)O)n1 [AZD1775] (first compound max 1 µM, partner max 1 µM) . Reported Bliss excess?
Result: -0.0632

###

- System: T-T (Esophageal Squamous Cell Carcinoma)
- PROTOCOL_NOTES: Bliss excess, mean over the matrix (fraction); higher = more synergy
PARAMETER_MEASURED: Bliss excess

>  <MOLECULE>
O=C(c1cc(Cc2n[nH]c(=O)c3ccccc23)ccc1F)N1CCN(C(=O)C2CC2)CC1 [Olaparib] + Cc1c2c(nn1C)CSCc1cc(n(C)n1)CSc1cc(c3ccccc3c1)OCCCc1c(C(=O)O)n(C)c3c-2c(Cl)ccc13 [AZD5991] (first compound max 10 µM, 7x7, partner max 1 µM)

>  <Bliss excess>
-0.0217

$$$$

Ask: Look at this molecule and give its reported Bliss excess. CC(=O)Nc1cccc(-n2c(=O)n(C3CC3)c(=O)c3c(Nc4ccc(I)cc4F)n(C)c(=O)c(C)c32)c1 [Trametinib] + Cc1nc(-c2cn3c(n2)-c2ccc(-c4cnn(C(C)(C)C(N)=O)c4)cc2OCC3)n(C(C)C)n1 [Taselisib] (first compound max 1 µM, 7x7, partner max 10 µM)
Result: 0.245

Ask: Which Bliss excess reading was recorded for the molecule Cc1c2c(nn1C)CSCc1cc(n(C)n1)CSc1cc(c3ccccc3c1)OCCCc1c(C(=O)O)n(C)c3c-2c(Cl)ccc13 [AZD5991] + CS(=O)(=O)CCNCc1ccc(-c2ccc3ncnc(Nc4ccc(OCc5cccc(F)c5)c(Cl)c4)c3c2)o1 [Lapatinib] (first compound max 1 µM, 7x7, partner max 10 µM) ?
Result: 0.0522

Ask: So what does the record say about Bliss excess for CN(C)CCCOc1ccc(-c2ccc3ncc4c(c3c2)n(C2CCOCC2)c(=O)n4C)cn1 [AZD0156] + CCN(CCO)CCCOc1ccc2c(Nc3cc(CC(=O)Nc4cccc(F)c4)[nH]n3)ncnc2c1 [AZD2811] (first compound max 1 µM, 7x7, partner max 1 µM) ?
Result: -0.0262

###

Known Bliss excess of a selection of compounds
- System: COR-L279 (Small Cell Lung Carcinoma)
- PROTOCOL_NOTES: Bliss excess, mean over the matrix (fraction); higher = more synergy
Enter the number alone.

>  <COMPOUND>
Cc1nc(-c2cn3c(n2)-c2ccc(-c4cnn(C(C)(C)C(N)=O)c4)cc2OCC3)n(C(C)C)n1 [Taselisib] + O=C(Nc1ccc2[nH]nc(-c3ccncc3)c2c1)[C@@H]1CCN(CC(=O)N2CCN(c3ccc(-c4ncccn4)cc3)CC2)C1 [SCH772984] (first compound max 10 µM, 7x7, partner max 5 µM)

>  <TARGET_OF_ASSAY>
COR-L279 (Small Cell Lung Carcinoma)

>  <Bliss excess>
0.0833

$$$$
>  <COMPOUND>
Cc1c2c(nn1C)CSCc1cc(n(C)n1)CSc1cc(c3ccccc3c1)OCCCc1c(C(=O)O)n(C)c3c-2c(Cl)ccc13 [AZD5991] + CC(=O)O[C@H]1C(=O)[C@@]2(C)[C@H]([C@H](OC(=O)c3ccccc3)[C@]3(O)C[C@H](OC(=O)[C@H](O)[C@@H](NC(=O)c4ccccc4)c4ccccc4)C(C)=C1C3(C)C)[C@]1(OC(C)=O)CO[C@@H]1C[C@@H]2O [Paclitaxel] (first compound max 1 µM, 7x7, partner max 3 µM)

>  <TARGET_OF_ASSAY>
COR-L279 (Small Cell Lung Carcinoma)

>  <Bliss excess>
0.0035

$$$$
>  <COMPOUND>
CS(=O)(=O)CCNCc1ccc(-c2ccc3ncnc(Nc4ccc(OCc5cccc(F)c5)c(Cl)c4)c3c2)o1 [Lapatinib] + NC1(c2ccc(-c3nc4ccn5c(=O)[nH]nc5c4cc3-c3ccccc3)cc2)CCC1 [MK-2206] (first compound max 10 µM, 7x7, partner max 10 µM)

>  <TARGET_OF_ASSAY>
COR-L279 (Small Cell Lung Carcinoma)

>  <Bliss excess>
0.0229

$$$$
>  <COMPOUND>
COc1nnc2ccc(N3CCC(c4ccc(OCCN5CCN(C)C(=O)[C@H]5C)cc4)CC3)nn12 [AZD5153] + CCN(CCO)CCCOc1ccc2c(Nc3cc(CC(=O)Nc4cccc(F)c4)[nH]n3)ncnc2c1 [AZD2811] (first compound max 1 µM, 7x7, partner max 1 µM)

>  <TARGET_OF_ASSAY>
COR-L279 (Small Cell Lung Carcinoma)

>  <Bliss excess>
-0.0201

$$$$
>  <COMPOUND>
Cc1c2c(nn1C)CSCc1cc(n(C)n1)CSc1cc(c3ccccc3c1)OCCCc1c(C(=O)O)n(C)c3c-2c(Cl)ccc13 [AZD5991] + C[C@@H](Nc1cc(F)cc(F)c1)c1cc(C(=O)N(C)C)cc2c(=O)cc(N3CCOCC3)oc12 [AZD8186] (first compound max 1 µM, 7x7, partner max 3 µM)

>  <TARGET_OF_ASSAY>
COR-L279 (Small Cell Lung Carcinoma)

>  <Bliss excess>
-0.0011

$$$$

Ask: Form field: reported Bliss excess of CN(CCO)CC[C@H](CSc1ccccc1)Nc1ccc(S(=O)(=O)NC(=O)c2ccc(N3CCC([C@@H](O)c4ccccc4-c4ccc(Cl)cc4)CC3)cc2)cc1S(=O)(=O)C(F)(F)F [AZD4320] + C[C@@H](Nc1cc(F)cc(F)c1)c1cc(C(=O)N(C)C)cc2c(=O)cc(N3CCOCC3)oc12 [AZD8186] (first compound max 1 µM, 7x7, partner max 3 µM)
Result: 0.0217
